Assay Name: Example 18 Part 2: multiple dose PK (20 mg QID) of 3,4-DAP and 3-N-acetyl metabolite in slow and fast acetylators
Type: in vivo, human
Experimental Setup: both sexes, human, plasma, oral, 20 mg, Day 3, Dose 4, fast acetylators, 20 mg QID; read-out: Mean Vz/F
Parameter: Vd/F (L)
Give bare numbers, in L.

Name the recorded Vd/F for Nc1ccncc1N .
1870

###

Assay Name: Example 18 Part 2: multiple dose PK (20 mg QID) of 3,4-DAP and 3-N-acetyl metabolite in slow and fast acetylators
Format: in vivo, human
Experimental Setup: both sexes, human, plasma, oral, 20 mg, Day 1, slow acetylators, Dose 1 interval, 20 mg QID, arith. mean; read-out: t1/2 (converted)
Experimental: The following method was used to analyze concentrations of 3,4-diaminopyridine and N-(4-aminopyridin-3-yl)acetamide in plasma and urine samples for the experiments in Example 18. […] Samples were analyzed by using HPLC with positive ion electrospray MS/MS detection. […] The LC/MS/MS method was validated to quantify 3,4-DAP in human plasma in the linear calibration range of 0.500 to 500 ng/mL and from 1.00 to 1000 ng/mL for the 3-N-acetyl metabolite. […]
Parameter: half-life
Numeric answer plus unit only.

Name the recorded half-life for CC(=O)Nc1cnccc1N [3-N-acetyl amifampridine, N-(4-aminopyridin-3-yl)acetamide] .
2.95 h
